# Tested on: HCT-15 colon
# protocol_summary: NCI tumour cell line growth inhibition, 48 h
Can you tell me GI50 for the items I'm about to list?

Prompt: If you can, please state the reported GI50 value of `CCc1n(Cc2ccc3ccccc3n2)cc[n+]1Cc1ccc2ccccc2n1` .
Response: 65.7 µM

Prompt: If you can, please state the reported GI50 value of `C/C(=N\O)c1cccc(Nc2cc(-n3ccnn3)c3ccccc3n2)c1` .
Response: 13.5 µM

Prompt: If you can, please state the reported GI50 value of `Cc1c(S(C)(=O)=O)c(-c2cc(F)cc(N3CCN(c4ccc(NS(=O)(=O)c5ccc(N[C@H](CCN6CCC(C(=O)OCCCP(=O)(O)O)CC6)CSc6ccccc6)c(S(=O)(=O)C(F)(F)F)c5)cc4)CC3)c2)c(-c2ccc(Cl)cc2)n1C(C)C` .
Response: > 100 µM

Prompt: If you can, please state the reported GI50 value of COc1ccc(C2SCC(=O)N2NC(=O)C(O)c2ccccc2)cc1OC (centres undefined) .
Response: > 100 µM

---

# Tested on: HCT-116 colon
# protocol_summary: NCI tumour cell line growth inhibition, 48 h; in the data active = GI50 below about 0.43 µM; inactive = the rest
Pick one and only one: 1 for active, 0 for inactive

Prompt: Outcome? `FC(F)(F)c1cc(-c2nnc3n2N=C(N2CCCC2)CS3)cc(C(F)(F)F)c1`
Response: 0

Prompt: Outcome? `CCCCCCCNc1nc(C(=O)OCC)ncc1-c1ccc(C(F)(F)F)cc1`
Response: 0

Prompt: Outcome? `COc1cc2c(c(OC)c1OC)-c1ccc(N)c(=O)cc1[C@@H](NC(C)=O)CC2`
Response: 1

Prompt: Outcome? `COc1cc(/C=C2\CCC/C(=C\c3cc(OC)c(O)c(OC)c3)C2=O)cc(OC)c1O`
Response: 0

Prompt: Outcome? `Oc1ccc(C(c2ccc(O)cc2)c2ccc(Cl)cn2)cc1`
Response: 0

Prompt: Outcome? `CCN(CC)CCNc1ccc([N+](=O)[O-])c2sc3ccccc3c(=O)c12`
Response: 1

Prompt: Outcome? `CCn1c(C(=O)N(C2CC2)C2CC2)cc2c3c(ncn3C)c(Nc3cc(C)n(C)n3)nc21`
Response: 0

Prompt: Outcome? `CCc1n(Cc2ccc3ccccc3n2)cc[n+]1Cc1ccc2ccccc2n1`
Response: 0

Prompt: Outcome? `C[C@H](NC(=O)[C@@H]1CSSC[C@@H](NC(=O)c2nc3ccccc3cc2O)C(=O)NCC(=O)N1C)c1ccccc1`
Response: 0

Prompt: Outcome? `O=C1C=C(NCCNC(=S)Nc2ccccc2)c2nccc3c2c1nc1ccccc13`
Response: 0

Prompt: Outcome? `C/C(=N\O)c1cccc(Nc2cc(-n3ccnn3)c3ccccc3n2)c1`
Response: 0

---

Can you tell me TGI for the items I'm about to list?
# System: SF-539 CNS
# protocol_summary: NCI tumour cell line growth inhibition, 48 h

Prompt: If you can, please state the reported TGI value of `Oc1ccc(C(c2ccc(O)cc2)c2ccc(Cl)cn2)cc1` .
Response: > 100 µM

Prompt: If you can, please state the reported TGI value of `N/N=C1/C2CN3CCN(C2)CC1(c1ccc([N+](=O)[O-])cc1)C3` .
Response: > 100 µM

Prompt: If you can, please state the reported TGI value of `Clc1ccc(Cc2nc3ccccc3s2)c(Cl)c1` .
Response: 12 µM

Prompt: If you can, please state the reported TGI value of C=CC1[C@H]2COC(C)(C)O[C@@H]2CC(=O)C1(C)C (stereo partly specified) .
Response: > 100 µM

Prompt: If you can, please state the reported TGI value of `COC[C@@H](N=CN1CCc2cc(OC)c(OC)cc2[C@@H]1C)C(C)(C)C` .
Response: > 100 µM

Prompt: If you can, please state the reported TGI value of `CCNc1ccc2c(c1)Cc1ccccc1-2` .
Response: > 100 µM

Prompt: If you can, please state the reported TGI value of `COc1cc2c(c(OC)c1OC)-c1ccc(N)c(=O)cc1[C@@H](NC(C)=O)CC2` .
Response: > 100 µM

Prompt: If you can, please state the reported TGI value of `Cc1ccc(/C(=N\N=C(N)N)c2ccccc2)cc1` .
Response: 0.925 µM

Prompt: If you can, please state the reported TGI value of `CCOC(=O)c1c(N2CCCC2)ncn(-c2ccccc2)c1=S` .
Response: > 100 µM

Prompt: If you can, please state the reported TGI value of O=C(Nc1cccc([N+](=O)[O-])c1)C(=O)C(C(=O)c1ccccc1-c1ccccc1)C1OC(=O)c2ccccc21 (stereo unspecified) .
Response: 28.4 µM

Prompt: If you can, please state the reported TGI value of `COc1ccccc1N=C(N)N/N=C/c1c[nH]c2ccccc12` .
Response: 26.4 µM

---

# Test system: TK-10 renal
# protocol_summary: NCI tumour cell line growth inhibition, 48 h
assay_metric: TGI

Prompt: If you can, please state the reported TGI value of `O=[N+]([O-])c1ccc2nc(-c3ccccn3)c(-c3ccccn3)nc2c1` .
Response: > 100 µM

Prompt: If you can, please state the reported TGI value of `Cc1ccc(S(=O)(=O)NCCNC2=CC(=O)c3nc4ccccc4c4ccnc2c34)cc1` .
Response: 40.1 µM

Prompt: If you can, please state the reported TGI value of CCOP(=O)(OCC)C(Nc1cccc(F)c1)c1ccccc1 (stereo not drawn) .
Response: > 100 µM

Prompt: If you can, please state the reported TGI value of `Cc1cc(/C=C\c2ccc3ccccc3[n+]2C)c(O)c2ncccc12` .
Response: 6.54 µM

Prompt: If you can, please state the reported TGI value of `CN1CCN(c2ccc(NC(=O)c3nc4ccc5[nH]ncc5c4c4c3CCCC4)cc2C(F)(F)F)CC1` .
Response: 2.2 µM

Prompt: If you can, please state the reported TGI value of COC1=CC(=O)C2C(C1=O)[C@@H]1c3ccccc3C[C@H]21 (stereo partly drawn) .
Response: > 100 µM

Prompt: If you can, please state the reported TGI value of `CCOC(=O)C1=C(c2ccccc2)N(C)c2ccccc2S1` .
Response: > 100 µM

Prompt: If you can, please state the reported TGI value of COc1cc2c(cc1OCCCC(=O)Nc1cc(C(=O)Nc3cc(C(=O)Nc4cc(C(=O)NCCCN(C)C)n(C)n4)n(C)n3)n(C)n1)N=CC1CCCN1C2=O (stereo not drawn) .
Response: 40.7 µM

Prompt: If you can, please state the reported TGI value of CC1CC2CC(=O)CC3(C1)C2CCCN3CCCO (stereo not drawn) .
Response: > 100 µM

Prompt: If you can, please state the reported TGI value of `C=CCN(/C=C1/C(=O)O[C@H](COC)[C@@]2(C)C1=C(O)C(=O)C1=C2[C@H](OC(C)=O)C[C@]2(C)C(=O)CC[C@@H]12)CC=C` .
Response: > 7.79 µM

Prompt: If you can, please state the reported TGI value of `Cc1cc(O)c(C(C)C)cc1SC#N` .
Response: 31.8 µM

Prompt: If you can, please state the reported TGI value of `O=C1C=CC(=O)C(CNc2ccc(C(=O)OC34CC5CC(CC(C5)C3)C4)cc2)=C1` .
Response: 23.8 µM

Prompt: If you can, please state the reported TGI value of CC(=O)O[C@@H]1C[C@@]23C[C@@]24CC[C@H](OC2OCC(O)C(O)C2O)C(C)(C)[C@@H]4CC=C3[C@]2(C)C[C@@H]3OC4(C[C@@H](C)[C@@H]3[C@@]12C)OC(O)[C@@]1(C)O[C@@H]41 (stereo partly drawn) .
Response: > 100 µM

Prompt: If you can, please state the reported TGI value of `COc1ccc(-c2cc(=O)c3c(C)cc(C)nc3[nH]2)cc1` .
Response: 99.2 µM

Prompt: If you can, please state the reported TGI value of `O=C(Nc1cccs1)c1c(O)[nH]c(=S)[nH]c1=O` .
Response: > 100 µM

Prompt: If you can, please state the reported TGI value of `CCC(=O)O[C@H]1CC[C@H]2[C@@H]3CC[C@H]4CC(=O)[C@H](C)C[C@]4(C)[C@H]3CC[C@]12C` .
Response: > 100 µM

Prompt: If you can, please state the reported TGI value of `C(=C\c1cccc(/C=C/c2ccccn2)n1)/c1ccccn1` .
Response: > 100 µM

Prompt: If you can, please state the reported TGI value of `CCCCc1cc2c(C)cc(=O)oc2c(O)c1O` .
Response: > 100 µM

Prompt: If you can, please state the reported TGI value of Cc1nc2c3c(ncn2n1)Oc1c(c(-c2ccccc2)nn1-c1ccccc1)C3c1ccc(Cl)cc1 (stereo not drawn) .
Response: > 100 µM

Prompt: If you can, please state the reported TGI value of `O=Cc1ccccc1OCCOc1cc(OCCOc2ccccc2C=O)c(OCCOc2ccccc2C=O)cc1OCCOc1ccccc1C=O` .
Response: 96.8 µM

Prompt: If you can, please state the reported TGI value of O=C(/C=C/c1ccccc1)CC1OC(=O)c2ccccc21 (stereo not drawn) .
Response: > 100 µM

Prompt: If you can, please state the reported TGI value of CCc1c(Cc2cccc3ccccc23)n2c(nc1=O)SCC2OCCO (stereo not drawn) .
Response: > 100 µM

Prompt: If you can, please state the reported TGI value of COc1ccc(C2SCC(=O)N2NC(=O)C(O)c2ccccc2)cc1OC (stereo not drawn) .
Response: > 100 µM

Prompt: If you can, please state the reported TGI value of `Cc1ccc(C(=O)N/N=C(\N=Nc2cccc(Cl)c2)c2ccc(N(CCC#N)CCC#N)cc2C)cc1` .
Response: > 100 µM

Prompt: If you can, please state the reported TGI value of COC(=O)C(C(=O)C(=O)Nc1ccc(C(F)(F)F)cc1[N+](=O)[O-])c1csc(-n2nc(-c3ccccc3)cc2-c2ccccc2)n1 (stereo not drawn) .
Response: > 100 µM

Prompt: If you can, please state the reported TGI value of CCCNCCCC(NC(C)=O)C(=O)NCc1ccccc1 (stereo not drawn) .
Response: > 100 µM

Prompt: If you can, please state the reported TGI value of `COc1ccccc1N=C(N)N/N=C/c1c[nH]c2ccccc12` .
Response: 30.9 µM

Prompt: If you can, please state the reported TGI value of `Cc1ccncc1.F[B-](F)(F)F.[Pt+2].c1ccc(-c2cccc(-c3ccccn3)n2)nc1` .
Response: 28.5 µM
